Target: human GLP-1 receptor (human, UniProt P43220 24-463); further: reference of the scale not given here
Test: cell-based or functional assay
Would you mind telling me the reported hGLP1R GTPgS % Top of each entry?
Give bare numbers, in %.

>>> test_value("YXEGTFTSDYSIXLDKKAQXEFIEYLIAGGPSSGAPPPS (not fully specified; Aib2, αMeL13, K17 conjugated to (2-[2-(2-Amino-ethoxy)-ethoxy]-acetyl)-(γ-Glu)-CO-(CH2)18-CO2H, Aib20, C-terminal amide (NH2)) [Example 339]")
74.1
>>> test_value("FXEGTFTSDYSIXLDKKAQXAFIEYLIAGGPSSGAPPPS (not fully specified; Aib2, αMeL13, K17 conjugated to (2-[2-(2-Amino-ethoxy)-ethoxy]-acetyl)2-(γ-Glu)-CO-(CH2)18-CO2H, Aib20, C-terminal amide (NH2)) [Example 337]")
59.5

Report hGLP1R GTPgS % Top for each item below.
1. XXEGTFTSDYSIXLDXKAQXEFIEXLIEGGPSSGAPPPS (D-Tyr1, Aib2, αMeL13, Orn16, K17 conjugated to (2-[2-(2-Amino-ethoxy)-ethoxy]-acetyl)2-(γ-Glu)-CO-(CH2)18-CO2H, Aib20, αMeY25, C-terminal amide (NH2)) [Example 380]
2. XXEGTFTSDYSIXLDXKAQXAFIEYLIAGGPSSGAPPPS (D-Tyr1, Aib2, αMeL13, Orn16, K17 conjugated to (2-[2-(2-Amino-ethoxy)-ethoxy]-acetyl)2-(γ-Glu)-CO-(CH2)18-CO2H, Aib20, C-terminal amide (NH2)) [Example 346]
3. XXEGTFTSDYSIXLDXKAQXEFIEYLIAGGPSSGAPPPS (D-Tyr1, Aib2, αMeL13, Orn16, K17 conjugated to (2-[2-(2-Amino-ethoxy)-ethoxy]-acetyl)2-(γ-Glu)-CO-(CH2)16-CO2H, Aib20, C-terminal amide (NH2)) [Example 368]
4. XXEGTFTSDYSIXLDXKAQXDFIEYLIAGGPSSGAPPPS (D-Tyr1, Aib2, αMeL13, Orn16, K17 conjugated to (2-[2-(2-Amino-ethoxy)-ethoxy]-acetyl)2-(γ-Glu)-CO-(CH2)18-CO2H, Aib20, C-terminal amide (NH2)) [Example 369]
5. YXEGTFTSDYSIXLDEKAQXAFIEYLIEGGPSSG (Aib2, αMeL13, K17 conjugated to (2-[2-(2-Amino-ethoxy)-ethoxy]-acetyl)2-(γ-Glu)-CO-(CH2)16-CO2H, Aib20, C-terminal amide (NH2)) [Example 303]
6. XXEGTFTSDYSIXLDXKAQXAFVEYLIAGGPSSGAPPPS (D-Tyr1, Aib2, αMeL13, Orn16, K17 conjugated to (2-[2-(2-Amino-ethoxy)-ethoxy]-acetyl)2-(γ-Glu)-CO-(CH2)18-CO2H, Aib20, C-terminal amide (NH2)) [Example 358]

[66.8, 56.6, 68.9, 58.8, 74.3, 72.3]
